Reported fraction of GFP-LC3-positive cells values follow for various molecules
Test system: CbCln3 Δex7/8/Δex7/8 GFP-LC3 cerebellar neuronal cells
Assay: fraction of GFP-LC3-positive cells (≥5 vesicles/cell); higher = more autophagosome accumulation
Whole data set: some 1,700 compounds, median “fraction of GFP-LC3-positive cells (≥5 vesicles/cell)” near 0.43, cut for the highest 2% near 0.81. The sample as a whole holds a higher share of the highest values than the screen did.
RECORDED_ENDPOINT: fraction of GFP-LC3-positive cells

# MOLECULE, REPORTED_RESULT
measured = [
    ("CNCCc1ccccn1.CS(=O)(=O)O.CS(=O)(=O)O [Betahistine mesylate]", 0.488),
    ("CCCCC[C@H](O)/C=C/C=C\\C=C\\C=C\\[C@@H](O)[C@@H](O)CCCC(=O)O", 0.498),
    ("CCc1cccc2c3c([nH]c12)C(CC)(CC(=O)O)OCC3 (stereo unspecified)", 0.495),
    ("Cl.c1ccc2c(c1)CCCC2C1=NCCN1 (stereo unspecified) [Tetrahydrozoline hydrochloride]", 0.357),
    ("CN(C)CC/C=C1\\c2ccccc2CSc2ccccc21.Cl [Dosulepin hydrochloride]", 0.637),
    ("NC[C@H]1CC[C@H](C(=O)O)CC1", 0.53),
    ("CNc1ncnc2c1ncn2[C@@H]1O[C@H](CO)[C@@H](O)[C@H]1O", 0.417),
    ("CC(=O)N(CC(C)C(=O)O)c1c(I)cc(I)c(N)c1I (stereo unspecified)", 0.312),
    ("CCCCCCCCCCCCCCC[C@@H](O)[C@H](CO)NC(=O)CCCCCCC", 0.494),
    ("CCCCC[C@H](O)/C=C/C=C\\C/C=C\\C/C=C\\CCCC(=O)O", 0.405),
    ("c1ccc2[nH]c(-c3cscn3)nc2c1", 0.326),
    ("Nc1ccc(S(=O)(=O)Nc2ccc(Cl)nn2)cc1", 0.368),
    ("Cl.OC(CCN1CCCCC1)(c1ccccc1)C1C[C@@H]2C=C[C@H]1C2 (stereo partly specified) [Biperiden hydrochloride]", 0.447),
    ("Cl.NC(CO)C(=O)NNCc1ccc(O)c(O)c1O (stereo unspecified) [Benserazide hydrochloride]", 0.411),
    ("CCCCCCCCCCCCCCCCCCOC[C@@H](O)COP(=O)([O-])OCC[N+](C)(C)C", 0.362),
    ("CCCCC[C@H](O)/C=C/[C@H]1[C@H](O)CC(=O)[C@@H]1CCCCCCC(=O)O [Prostaglandin E1]", 0.349),
    ("CCN(CC)CCOCCOC(=O)C1(c2ccccc2)CCCC1.O=C(O)CC(O)(CC(=O)O)C(=O)O [Carbetapentane citrate]", 0.469),
    ("CCCCCCCCCCCCCCC[C@@H](O)[C@H](CO)NC(=O)CCCCCCC [C8 Dihydroceramide]", 0.428),
    ("CCCCCCCC/C=C\\CCCCCCCC(=O)NCCc1ccc(O)c(O)c1", 0.611),
    ("Cc1cc2cc3c(C)cc(=O)oc3c(C)c2o1", 0.357),
    ("CCOC(=O)[C@H](CCc1ccccc1)N[C@@H](C)C(=O)N1CCC[C@H]1C(=O)O.O=C(O)/C=C\\C(=O)O [Enalapril maleate]", 0.395),
    ("Nc1nc2c(ncn2COCCO)c(=O)[nH]1", 0.421),
    ("COc1ccc(C[C@H](N)C(=O)N[C@H]2[C@@H](O)[C@H](n3cnc4c(N(C)C)ncnc43)O[C@@H]2CO)cc1.Cl.Cl [Puromycin dihydrochloride]", 0.937),
    ("NS(=O)(=O)c1cc(C(=O)O)cc(N2CCCC2)c1Oc1ccccc1 [Piretanide]", 0.344),
    ("Nc1nc2[nH]nnc2c(=O)[nH]1", 0.845),
    ("Cc1c(N)c(=O)n(-c2ccccc2)n1C", 0.49),
    ("Cc1cccc(C)c1NC(=O)C(C)N.Cl (stereo unspecified) [Tocainide hydrochloride]", 0.504),
    ("CCCNC(C)C(=O)Nc1ccccc1C.Cl (stereo unspecified) [Prilocaine hydrochloride]", 0.359),
    ("CC(=O)N[C@@H](CC(C)C)C(=O)N[C@@H](CC(C)C)C(=O)N[C@H](C=O)CCCNC(=N)N", 0.392),
    ("CC(=O)O[C@H]1C(=O)[C@@]2(C)[C@H]([C@H](OC(=O)c3ccccc3)[C@]3(O)C[C@H](OC(=O)[C@H](O)[C@@H](NC(=O)c4ccccc4)c4ccccc4)C(C)=C1C3(C)C)[C@]1(OC(C)=O)CO[C@@H]1C[C@@H]2O", 0.843),
    ("NCc1ccccc1CC(=O)N[C@@H]1C(=O)N2C(C(=O)O)=C(CSc3nnnn3CC(=O)O)CS[C@H]12 [Ceforanide]", 0.519),
]

====

System: CbCln3 Δex7/8/Δex7/8 GFP-LC3 cerebellar neuronal cells
Assay: fraction of GFP-LC3-positive cells (≥5 vesicles/cell); higher = more autophagosome accumulation
In all, about 1,700 compounds were measured (“fraction of GFP-LC3-positive cells (≥5 vesicles/cell)”: median about 0.43, highest 2% from about 0.81 on). The full list was thinned out, with the highest values kept by preference.
Reported fraction of GFP-LC3-positive cells values follow for various compounds

# COMPOUND, fraction of GFP-LC3-positive cells
data = [
    ("CCCCC/C=C\\C/C=C\\C=C\\[C@@H](O)C/C=C\\CCCC(=O)O", 0.479),
    ("C=C1CC[C@H](O)C/C1=C/C=C1\\CCC[C@]2(C)[C@@H]([C@H](C)CCCC(C)C)CC[C@@H]12", 0.281),
    ("COC(=O)Nc1nc2cc(Sc3ccccc3)ccc2[nH]1", 0.648),
    ("C[C@]12C=CC(=O)C=C1CC[C@@H]1[C@@H]2C(=O)C[C@@]2(C)[C@H]1CC[C@]2(O)C(=O)CO", 0.49),
    ("CS(=O)(=O)c1ccc([C@@H](O)[C@@H](CF)NC(=O)C(Cl)Cl)cc1", 0.355),
    ("CC(C)(C)c1cc(O)c(C(C)(C)C)cc1O [2,5-ditertbutylhydroquinone]", 0.696),
    ("Nc1cc(N2CCCCC2)nc(N)[n+]1OS(=O)(=O)[O-]", 0.38),
    ("CC/C=C\\C/C=C\\C/C=C\\CCCCCCCCCCCC(=O)O [Docosatrienoic acid (22:3 N-3)]", 0.466),
    ("CN[C@H]1CC[C@@H](c2ccc(Cl)c(Cl)c2)c2ccccc21", 0.311),
    ("CCC[C@@H]1C[C@@H](C(=O)N[C@@H]([C@H]2O[C@H](SC)[C@H](O)[C@@H](O)[C@@H]2O)[C@@H](C)O)N(C)C1.Cl [Lincomycin hydrochloride]", 0.505),
    ("C=CCOc1ccccc1OCC(O)CNC(C)C.Cl (stereo not drawn) [Oxprenolol hydrochloride]", 0.366),
    ("Nc1nc(S)c2ncn([C@@H]3O[C@H](CO)[C@@H](O)[C@H]3O)c2n1", 0.576),
    ("CC/C=C\\C/C=C\\C/C=C\\CCCCCCCCCCCC(=O)O", 0.417),
    ("CC[C@H](C)C(=O)O[C@H]1C[C@@H](C)C=C2C=C[C@H](C)[C@H](CC[C@@H]3C[C@@H](O)CC(=O)O3)[C@H]21", 0.0901),
    ("NS(=O)(=O)c1cc2c(cc1Cl)N=C(CSCc1ccccc1)NS2(=O)=O [Benzthiazide]", 0.293),
    ("CCCc1cc(=O)[nH]c(=S)[nH]1", 0.375),
    ("CC(C)NNC(=O)c1ccncc1.O=P(O)(O)O [Iproniazide phosphate]", 0.489),
    ("COc1cc2nc(N3CCN(C(=O)c4ccco4)CC3)nc(N)c2cc1OC", 0.931),
]
